assaySystem: UniProtKB P60520
Sequence (P60520 whole entry): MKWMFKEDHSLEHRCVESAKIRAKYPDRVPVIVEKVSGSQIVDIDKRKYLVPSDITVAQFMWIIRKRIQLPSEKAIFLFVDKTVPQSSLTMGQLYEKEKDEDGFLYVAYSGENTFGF
experimentalConditions: residue L11; GABARAPL2:ligand molar ratio 1:2
Entries and their measured CSP follow.
Numeric answer only, unit ppm assumed.

O=C1Nc2ccc(I)cc2C1=Cc1cc(Br)c(O)c(Br)c1 :: 0.016

q: Item O=C1Nc2ccc(Br)cc2C1=Cc1cc(O)c(O)c(Br)c1 with UniProtKB P60520 - CSP?
a: 0.00364

q: Okay, and O=c1cc(-c2ccccc2)c2c(O)cc(O)cc2o1 ?
a: 0.00212

q: Okay, and Cc1ccc(C(=O)N(CCCN)[C@@H](c2nc3cc(Cl)ccc3c(=O)n2Cc2ccccc2)C(C)C)cc1 ?
a: 0.000762

The measurements presented in this section are drawn from paper PMC11589570.
